study_target: UDP-glucuronosyltransferase 1A1 (Homo sapiens)
Sequence (P22309 whole entry): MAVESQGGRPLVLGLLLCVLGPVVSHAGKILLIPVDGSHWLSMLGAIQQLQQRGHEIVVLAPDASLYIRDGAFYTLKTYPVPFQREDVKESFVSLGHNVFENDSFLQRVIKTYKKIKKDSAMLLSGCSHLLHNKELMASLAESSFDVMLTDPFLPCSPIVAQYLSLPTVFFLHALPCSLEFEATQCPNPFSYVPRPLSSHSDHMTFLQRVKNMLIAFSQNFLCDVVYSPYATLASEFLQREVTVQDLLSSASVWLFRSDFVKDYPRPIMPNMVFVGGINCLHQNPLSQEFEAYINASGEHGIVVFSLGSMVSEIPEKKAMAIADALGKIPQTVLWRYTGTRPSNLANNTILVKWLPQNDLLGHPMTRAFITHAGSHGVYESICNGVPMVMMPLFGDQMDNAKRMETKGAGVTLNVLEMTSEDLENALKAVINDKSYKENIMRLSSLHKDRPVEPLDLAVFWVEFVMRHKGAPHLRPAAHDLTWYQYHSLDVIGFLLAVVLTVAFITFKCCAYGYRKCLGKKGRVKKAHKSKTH
test_method_notes: Induction of UGT1A1 (unknown origin) assessed as increase in intracellular acidic autophagy vesicles formation
measurement_label: IC50 (nM)

- line_notation: "C=CC(C)(C)c1cc(/C=C/C(=O)c2ccc(O)cc2)c(OC)cc1O"
  measurement_label: "IC50"
  assay_result: 970
